Where these numbers come from: patent US20240101708A1

Each record here notes measured Kd.
target.under.test: T1, recombinant human RNF43 extracellular domain (human, UniProt Q68DV7 24-197)
T1 construct: extracellular domain; also called huRNF43; human RNF43 ECD
T1 sequence (looked up): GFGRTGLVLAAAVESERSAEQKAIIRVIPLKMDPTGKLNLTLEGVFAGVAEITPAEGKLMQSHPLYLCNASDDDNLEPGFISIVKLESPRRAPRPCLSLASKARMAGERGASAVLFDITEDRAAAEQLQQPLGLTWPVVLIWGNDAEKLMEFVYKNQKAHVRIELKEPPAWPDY
measurement.description: SPR Biacore 8K; antibody captured on Protein A; RNF43 ECD analyte; 25 C
All answers are understood in nM, so give the number only.

binder: RNF43-224 (antibody, V domains shown, Rat clone; VH/VL only) VH: EVQLKESGPGLVQPSQTLSLTCTVSGFSLSDYSVHWVRQPPGKGLEWMGVMWSGGTTAYNSALKSRLSISRDTSKNQVLLEMNSLQTEDTAIYYCTRGGKYDGTYYYGWYFDFWGPGTMVTVSS VL: DVVLTQSPATLSVTPGERISLSCRASESVDTYLSWYQQKPNESPRLLIKYASQSISGIPSRFSGSGSGTDFTLSINGVELEDLSIYYCQQGNSLPLTFGSGTKLEIK
Kd (nM): 0.584

binder: RNF43-179 (antibody, V domains shown, Rat clone; VH/VL only) VH: EVQLVESGGGLVQPGRSLKLSCVASGFTFNDYYMAWVRQAPKKGLEWVASINYEGSRTYYGDSVKGRFTISRDNAKSTLYLQMNSLRSEDTATYYCATHSNYIFDNWGQGVMVTVSS VL: DIRMTQSPASLSASLGETVNIECLASEDIYSDFAWFQQKPGQSPLLLIYNGNNLQNGVPSRFSGSGSGTQYSLKINSLQSEDVATYFCQQYNNYPPTFGGGTKLELK
Kd (nM): 31.7

binder: RNF43-181 (antibody, V domains shown, Rat clone; VH/VL only) VH: QIQLQQSGAELVKPGSSVKISCKSSAYRFTSNFIHWIRQQPGNGLEWIGWIYPGDGDAENNQKFNGKVILTADKSSSTAYMQLSSLTSEDSAVYFCARGVMTSLWYFDFWGPGTMVTVSS VL: DVQMTQSPYNLAASPGESVSINCKASKSISKYLAWYQQKPGKTNKLLIYDGSTLQSGIPSRFSGSGSGTDFTLTIRSLEPEDFGLYYCQQHHEQPPTFGSGTKLEIK
Kd (nM): 0.0859

Please turn your attention to the following entry.
What value of Kd has been reported for the following binder? RNF43-136 (antibody, V domains shown, Rat clone; VH/VL only) VH: QVQLQQSGAELVKPGSSVKISCKASGYTFTSKFMHWIKQQPGSGLEWIGWIYPEHGNTKYNQKFDGKATLTADKSSSTAYMQLSSLTSGDSAVYFCARQSSQGAYAMDAWGQGTSVTVSS VL: DIQMTQSPVSLSASLGQTVSIECLTSEGIPIDLAWYQQKSGKSPQLLIYAASRSQDGVPSRFSGSGSGTRYSLKISGMQPEDEADYFCQQTYKYPFTFGSGTRLEIK
1.91
